# Target system: HLA-A*0201 (Homo sapiens, UniProt P04439, D140Y/D185E/D98H/E176V/E277Q/G131W/G231S/I119V/I121R/I166T/I218V/L300P/L318F/N151K/N90K/P208A/P217A/Q86G/Q94H/R138H/R169H/T345S)
# Protocol summary: In vitro class I HLA binding assay (fluorescence polarization competition)
# Run parameters: allele A*0201; fluorescence polarization competition; read-out: IC50 (nM), in vitro HLA binding affinity
Where a SMILES comes first, the peptide text is derived from it.
Answer each item with its documented IC50.
Answers are plain numbers, in nM.

molecule="CC(C)C[C@H](NC(=O)[C@H](CO)NC(=O)[C@H](Cc1ccccc1)NC(=O)[C@@H](NC(=O)[C@H](CC(C)C)NC(=O)[C@@H](N)CCCCN)[C@@H](C)O)C(=O)N[C@@H](CC(=O)O)C(=O)N[C@@H](Cc1c[nH]cn1)C(=O)N[C@@H](CCCNC(=N)N)C(=O)N[C@H](C(=O)O)C(C)C [RIPR_0035] (H-KLTFSLDHRV-OH)" reported_endpoint=IC50 numeric_value=8880
molecule="CSCC[C@H](NC(=O)[C@H](Cc1ccc(O)cc1)NC(=O)[C@H](CCC(=O)O)NC(=O)[C@@H](NC(=O)[C@H](Cc1c[nH]c2ccccc12)NC(=O)[C@@H]1CCCN1C(=O)[C@H](CC(N)=O)NC(=O)CNC(=O)[C@H](CCSC)NC(=O)[C@@H](N)Cc1ccc(O)cc1)[C@@H](C)O)C(=O)O [AMA1_105] (H-YMGNPWTEYM-OH)" reported_endpoint=IC50 numeric_value=21400

Lab note: next molecule to report on.
[in] Bench note: what IC50 did CC[C@H](C)[C@H](NC(=O)[C@H](CCSC)NC(=O)[C@@H](N)CO)C(=O)N[C@@H](CCCCN)C(=O)N[C@@H](CO)C(=O)N[C@@H](C)C(=O)N[C@@H](Cc1ccccc1)C(=O)N[C@@H](CC(C)C)C(=O)N1CCC[C@H]1C(=O)N[C@H](C(=O)O)[C@@H](C)O [AMA1_373] (H-SMIKSAFLPT-OH) show?
[out] 12500
